The reported numbers originate from the supplement of paper PMC11061612.

- Tested on: PCI-30 (Head and Neck Carcinoma)
- procedure summary: Bliss excess, mean over the matrix (fraction); higher = more synergy
# Bliss excess per entry
The answer should be a number; do not append a unit.

- compound: "Cc1c2c(nn1C)CSCc1cc(n(C)n1)CSc1cc(c3ccccc3c1)OCCCc1c(C(=O)O)n(C)c3c-2c(Cl)ccc13 [AZD5991] + C[C@@H](Nc1cc(F)cc(F)c1)c1cc(C(=O)N(C)C)cc2c(=O)cc(N3CCOCC3)oc12 [AZD8186] (first compound max 1 µM, 7x7, partner max 3 µM)"
  Bliss excess: -0.0209

Recorded Bliss excess for COc1cccc2c1C(=O)c1c(O)c3c(c(O)c1C2=O)C[C@@](O)(C(=O)CO)C[C@@H]3O[C@H]1C[C@H](N)[C@H](O)[C@H](C)O1 [Doxorubicin] + Cc1cc2ncnn2cc1Nc1ncc2c(n1)n(C1CCOCC1)c(=O)n2C [AZD7648] (first compound max 1 µM, 7x7, partner max 10 µM) , please?
0.006

----------
- Tested on: HO-1-u-1 (Oral Cavity Carcinoma)
- procedure summary: combination Emax (second highest fraction inhibited in the dose matrix, 72 h); higher = more inhibition; extreme values may be limits of the assay
property: combination Emax
The answer should be a number; do not append a unit.

Some compounds with known combination Emax results, for comparison:
- compound: "COc1nnc2ccc(N3CCC(c4ccc(OCCN5CCN(C)C(=O)[C@H]5C)cc4)CC3)nn12 [AZD5153] + C[C@@H]1COCCN1C2=NC(=NC(=C2)C3(CC3)[S@](=N)(=O)C)C4=C5C=CNC5=NC=C4 [AZD6738] (first compound max 1 µM, 7x7, partner max 10 µM)"
  target under test: "HO-1-u-1 (Oral Cavity Carcinoma)"
  quantitative result: 0.89
- compound: "COc1cccc(OCCCN)c1-c1cc(Nc2cnc(C#N)cn2)n[nH]1 [Prexasertib] + CN(C)CCCOc1ccc(-c2ccc3ncc4c(c3c2)n(C2CCOCC2)c(=O)n4C)cn1 [AZD0156] (first compound max 1 µM, 7x7, partner max 1 µM)"
  target under test: "HO-1-u-1 (Oral Cavity Carcinoma)"
  quantitative result: 0.975
- compound: "COc1cccc(OCCCN)c1-c1cc(Nc2cnc(C#N)cn2)n[nH]1 [Prexasertib] + CCc1c2c(nc3ccc(O)cc13)-c1cc3c(c(=O)n1C2)COC(=O)[C@]3(O)CC [SN-38] (first compound max 1 µM, 7x7, partner max 0.3 µM)"
  target under test: "HO-1-u-1 (Oral Cavity Carcinoma)"
  quantitative result: 0.996

Would you kindly look at the next entry?
Recorded combination Emax for CC1(C)CCC(CN2CCN(c3ccc(C(=O)NS(=O)(=O)c4ccc(NCC5CCOCC5)c([N+](=O)[O-])c4)c(Oc4cnc5[nH]ccc5c4)c3)CC2)=C(c2ccc(Cl)cc2)C1 [Venetoclax] + C1CN(CCC1(C(=O)N[C@@H](CCO)C2=CC=C(C=C2)Cl)N)C3=NC=NC4=C3C=CN4 [Capivasertib] (first compound max 1 µM, 7x7, partner max 3 µM) , please?
0.719

----------
- Test system: 639-V (Bladder Carcinoma)
- procedure summary: Bliss excess, mean over the matrix (fraction); higher = more synergy
# Bliss excess per entry
The answer should be a number; do not append a unit.

Some compounds with known Bliss excess results, for comparison:
- compound: "CCN(CCO)CCCOc1ccc2c(Nc3cc(CC(=O)Nc4cccc(F)c4)[nH]n3)ncnc2c1 [AZD2811] + C[C@@H]1COCCN1C2=NC(=NC(=C2)C3(CC3)[S@](=N)(=O)C)C4=C5C=CNC5=NC=C4 [AZD6738] (first compound max 1 µM, 7x7, partner max 10 µM)"
  Bliss excess: -0.0164
- compound: "CN(CCO)CC[C@H](CSc1ccccc1)Nc1ccc(S(=O)(=O)NC(=O)c2ccc(N3CCC([C@@H](O)c4ccccc4-c4ccc(Cl)cc4)CC3)cc2)cc1S(=O)(=O)C(F)(F)F [AZD4320] + CCN(CCO)CCCOc1ccc2c(Nc3cc(CC(=O)Nc4cccc(F)c4)[nH]n3)ncnc2c1 [AZD2811] (first compound max 1 µM, 7x7, partner max 1 µM)"
  Bliss excess: 0.0502
- compound: "CN(CCO)CC[C@H](CSc1ccccc1)Nc1ccc(S(=O)(=O)NC(=O)c2ccc(N3CCC([C@@H](O)c4ccccc4-c4ccc(Cl)cc4)CC3)cc2)cc1S(=O)(=O)C(F)(F)F [AZD4320] + C1CN(CCC1(C(=O)N[C@@H](CCO)C2=CC=C(C=C2)Cl)N)C3=NC=NC4=C3C=CN4 [Capivasertib] (first compound max 1 µM, 7x7, partner max 3 µM)"
  Bliss excess: -0.0503
- compound: "CC1(C)CCC(CN2CCN(c3ccc(C(=O)NS(=O)(=O)c4ccc(NCC5CCOCC5)c([N+](=O)[O-])c4)c(Oc4cnc5[nH]ccc5c4)c3)CC2)=C(c2ccc(Cl)cc2)C1 [Venetoclax] + C1CN(CCC1(C(=O)N[C@@H](CCO)C2=CC=C(C=C2)Cl)N)C3=NC=NC4=C3C=CN4 [Capivasertib] (first compound max 1 µM, 7x7, partner max 3 µM)"
  Bliss excess: -0.108
- compound: "C=CCn1c(=O)c2cnc(Nc3ccc(N4CCN(C)CC4)cc3)nc2n1-c1cccc(C(C)(C)O)n1 [AZD1775] + C1CN(CCC1(C(=O)N[C@@H](CCO)C2=CC=C(C=C2)Cl)N)C3=NC=NC4=C3C=CN4 [Capivasertib] (first compound max 3 µM, partner max 3 µM)"
  Bliss excess: -0.0541

Would you kindly look at the next entry?
Recorded Bliss excess for Cc1nc(Nc2ncc(C(=O)Nc3c(C)cccc3Cl)s2)cc(N2CCN(CCO)CC2)n1 [Dasatinib] + CC(=O)Nc1cccc(-n2c(=O)n(C3CC3)c(=O)c3c(Nc4ccc(I)cc4F)n(C)c(=O)c(C)c32)c1 [Trametinib] (first compound max 2 µM, 7x7, partner max 1 µM) , please?
-0.0398
